Recorded measurements of pIC50, one per entry
- subject_of_test: Full length human recombinant PIKFYVE (Homo sapiens, UniProt Q9Y2I7)
- Construct: Full length human recombinant PIKFYVE
- Sequence (Q9Y2I7 whole entry): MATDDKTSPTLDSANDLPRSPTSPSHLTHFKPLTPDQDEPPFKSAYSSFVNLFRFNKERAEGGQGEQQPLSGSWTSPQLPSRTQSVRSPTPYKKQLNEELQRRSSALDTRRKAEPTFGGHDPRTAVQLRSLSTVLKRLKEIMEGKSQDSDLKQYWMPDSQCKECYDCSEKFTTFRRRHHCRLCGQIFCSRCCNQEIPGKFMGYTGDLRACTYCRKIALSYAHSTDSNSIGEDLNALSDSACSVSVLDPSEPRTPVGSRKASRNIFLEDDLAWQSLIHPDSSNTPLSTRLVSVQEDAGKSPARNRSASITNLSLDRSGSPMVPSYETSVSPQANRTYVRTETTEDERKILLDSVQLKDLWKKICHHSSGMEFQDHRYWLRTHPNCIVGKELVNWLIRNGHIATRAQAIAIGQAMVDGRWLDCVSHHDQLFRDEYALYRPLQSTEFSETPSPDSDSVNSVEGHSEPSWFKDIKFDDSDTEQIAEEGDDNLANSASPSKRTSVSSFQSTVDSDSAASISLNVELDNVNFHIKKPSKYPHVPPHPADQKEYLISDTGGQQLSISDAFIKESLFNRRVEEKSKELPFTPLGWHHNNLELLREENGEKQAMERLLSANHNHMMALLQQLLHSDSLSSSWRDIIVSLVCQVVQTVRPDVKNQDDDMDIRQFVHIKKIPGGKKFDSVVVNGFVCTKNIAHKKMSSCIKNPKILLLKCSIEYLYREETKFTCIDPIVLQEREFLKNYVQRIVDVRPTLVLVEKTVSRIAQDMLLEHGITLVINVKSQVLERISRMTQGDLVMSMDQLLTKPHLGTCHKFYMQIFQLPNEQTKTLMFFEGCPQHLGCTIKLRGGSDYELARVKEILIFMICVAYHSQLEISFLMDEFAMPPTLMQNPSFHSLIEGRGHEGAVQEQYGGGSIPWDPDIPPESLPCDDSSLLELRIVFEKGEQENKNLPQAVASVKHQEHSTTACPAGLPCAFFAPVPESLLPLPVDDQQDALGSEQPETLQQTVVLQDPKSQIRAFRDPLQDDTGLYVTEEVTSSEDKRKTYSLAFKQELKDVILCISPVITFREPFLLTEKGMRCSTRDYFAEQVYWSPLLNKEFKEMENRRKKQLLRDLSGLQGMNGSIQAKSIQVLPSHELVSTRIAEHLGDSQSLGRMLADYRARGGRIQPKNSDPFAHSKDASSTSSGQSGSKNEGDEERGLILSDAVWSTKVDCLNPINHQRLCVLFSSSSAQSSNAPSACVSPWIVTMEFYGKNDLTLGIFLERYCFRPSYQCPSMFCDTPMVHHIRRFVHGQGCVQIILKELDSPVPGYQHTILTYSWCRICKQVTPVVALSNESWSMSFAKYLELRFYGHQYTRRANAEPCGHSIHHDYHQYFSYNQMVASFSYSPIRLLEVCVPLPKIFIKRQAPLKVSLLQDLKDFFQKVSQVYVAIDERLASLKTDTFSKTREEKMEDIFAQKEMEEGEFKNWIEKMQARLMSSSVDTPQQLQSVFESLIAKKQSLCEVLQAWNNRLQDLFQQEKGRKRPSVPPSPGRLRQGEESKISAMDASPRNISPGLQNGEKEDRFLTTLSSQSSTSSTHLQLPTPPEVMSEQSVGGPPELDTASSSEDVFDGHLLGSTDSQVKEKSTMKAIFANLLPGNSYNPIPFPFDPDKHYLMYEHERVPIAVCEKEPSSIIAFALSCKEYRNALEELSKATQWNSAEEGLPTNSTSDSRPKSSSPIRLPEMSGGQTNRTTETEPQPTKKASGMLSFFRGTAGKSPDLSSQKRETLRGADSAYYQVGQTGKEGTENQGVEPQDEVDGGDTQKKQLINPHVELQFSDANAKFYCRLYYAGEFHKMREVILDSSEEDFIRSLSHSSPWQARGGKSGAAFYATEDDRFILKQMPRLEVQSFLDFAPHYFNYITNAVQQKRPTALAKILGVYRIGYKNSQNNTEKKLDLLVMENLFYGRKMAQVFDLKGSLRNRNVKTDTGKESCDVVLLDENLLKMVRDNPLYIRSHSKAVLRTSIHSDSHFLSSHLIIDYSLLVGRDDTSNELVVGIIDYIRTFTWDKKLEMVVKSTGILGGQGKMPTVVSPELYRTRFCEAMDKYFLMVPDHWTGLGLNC
- test_name: Inhibition of PIKfyve (microfluidic electrophoresis kinase assay, PI3P/PS substrate)
- particulars: 12 concentrations
pIC50: −log10 of the molar value. Where a name gives a salt, the structure may show the parent alone.
value_kind: pIC50

compound	test_value
Cc1cccc(-c2ccn(-c3nc(N4CCOCC4)c4oc(-c5cnn(C)c5)cc4n3)n2)c1 [Compound 205]	8.89
Cc1cccc(-c2ccn(-c3nc(N4CCOCC4)c4oc(C(=O)NCCCN(C)C)cc4n3)n2)c1 [Compound 109]	7.93
FC(F)(F)c1cc(Nc2nc(N3CCOCC3)c3oc(-c4ccncc4)cc3n2)[nH]n1 [Compound 72]	6.26
CN1CCC(NC(=O)c2cc3nc(-n4cc(-c5ccccc5)cn4)nc(N4CCOCC4)c3o2)C1 (centres unmarked) [Compound 170]	7.34
c1ccc(-c2cc(Nc3nc(N4CCOCC4)c4oc(-c5ccccn5)cc4n3)[nH]n2)cc1 [Compound 26]	10.00
CN(C(=O)c1cc2nc(Nc3cc(-c4ccccc4)[nH]n3)nc(N3CCOCC3)c2o1)C1CC1 [Compound 60]	7.15
O=C(NC1COC1)c1cc2nc(-n3cc(-c4ccccc4)cn3)nc(N3CCOCC3)c2o1 [Compound 174]	6.27
NC(=O)c1cc2nc(Nc3cc(-c4ccccc4)n[nH]3)nc(N3CCOCC3)c2o1 [Compound 52, hydrochloride]	7.33

Entry source: patent US20230146395A1
